Data provenance is ChEMBL document CHEMBL4130363.

Target: Muscarinic acetylcholine receptor M1 (Homo sapiens) (UniProt P11229)
Sequence (whole entry): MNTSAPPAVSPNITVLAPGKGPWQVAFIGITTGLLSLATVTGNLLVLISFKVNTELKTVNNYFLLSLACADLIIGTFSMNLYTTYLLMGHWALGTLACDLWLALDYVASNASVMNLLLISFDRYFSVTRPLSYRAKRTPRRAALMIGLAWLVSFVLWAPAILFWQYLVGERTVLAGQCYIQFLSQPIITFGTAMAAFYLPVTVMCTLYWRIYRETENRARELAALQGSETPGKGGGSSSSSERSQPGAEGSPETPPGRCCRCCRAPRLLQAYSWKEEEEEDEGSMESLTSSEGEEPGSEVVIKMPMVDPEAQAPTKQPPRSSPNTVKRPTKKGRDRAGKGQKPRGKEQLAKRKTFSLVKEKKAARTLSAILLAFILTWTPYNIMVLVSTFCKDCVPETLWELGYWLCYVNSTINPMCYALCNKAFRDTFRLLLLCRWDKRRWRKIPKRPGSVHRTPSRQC
Assay: Antagonist activity at recombinant human muscarinic M1 receptor assessed as inhibition of agonist-induced effect at 10 uM by aequorin reporter based assay
Type: functional
recorded-metric: inhibition (%)

Here is how some compounds turned out for inhibition.
CN(CCNC(=O)c1ccc(C#N)cc1)Cc1ccccc1 6
CN(CCCNC(=O)c1ccc(Br)cc1)Cc1ccccc1 89
CN(CCNC(=O)c1ccc(Cl)cc1)Cc1ccccc1 69
CCCc1ccc(C(=O)NCCCN(C)Cc2ccccc2)cc1 98

P: COc1cccc(C(=O)NCCCN(C)Cc2ccccc2)c1
Q: COc1ccc(C(=O)NCCCN(C)Cc2ccccc2)cc1
Among P and Q , which shows a numerically higher inhibition result? Bench note: the answer is the label of the chosen record.
P

---

Target: Sigma intracellular receptor 2 (Homo sapiens)
Sequence (Q5BJF2 whole entry): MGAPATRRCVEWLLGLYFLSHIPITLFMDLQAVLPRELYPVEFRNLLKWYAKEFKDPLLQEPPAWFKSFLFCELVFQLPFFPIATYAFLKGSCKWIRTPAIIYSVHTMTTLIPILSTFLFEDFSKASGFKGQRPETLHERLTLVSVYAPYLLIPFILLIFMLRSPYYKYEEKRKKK
Assay: Displacement of [3H]-DTG from S2R in human Jurkat cell membranes after 1 hr in presence of (+)-pentazocine by liquid scintillation counting
pKi: −log10 of the molar value.
recorded-metric: pKi

Here is how some compounds turned out for pKi.
smiles-data	pKi
CN(CCCNC(=O)c1ccc(Br)cc1F)Cc1ccccc1	6.70
CN(CCNC(=O)c1ccc(Cl)cc1)Cc1ccccc1	6.07

A: O=C(NCCCN1Cc2ccccc2C1)c1ccc(Cl)cc1
B: CN(CCNC(=O)c1cccc(Cl)c1Cl)Cc1ccccc1
Among A and B , which shows a numerically higher pKi result? Bench note: the answer is the label of the chosen record.
B

---

Target: Cholecystokinin receptor type A (Homo sapiens) (UniProt P32238)
Sequence (P32238 whole entry): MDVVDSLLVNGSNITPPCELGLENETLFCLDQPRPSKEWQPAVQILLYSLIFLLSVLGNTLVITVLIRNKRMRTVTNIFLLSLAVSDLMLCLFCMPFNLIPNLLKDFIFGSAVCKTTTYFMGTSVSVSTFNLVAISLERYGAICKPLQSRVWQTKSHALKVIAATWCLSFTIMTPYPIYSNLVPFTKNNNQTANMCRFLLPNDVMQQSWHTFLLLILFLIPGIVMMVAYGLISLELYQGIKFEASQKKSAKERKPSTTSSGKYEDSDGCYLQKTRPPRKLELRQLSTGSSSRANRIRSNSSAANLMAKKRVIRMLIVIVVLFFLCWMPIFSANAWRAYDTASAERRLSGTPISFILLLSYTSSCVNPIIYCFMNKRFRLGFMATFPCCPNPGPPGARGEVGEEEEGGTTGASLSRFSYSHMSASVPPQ
Assay: Agonist activity at recombinant human […] receptor at 10 uM by aequorin reporter based assay relative to agonist
Type: functional
recorded-metric: Activity (%)

Here is how some compounds turned out for Activity.
CN(CCCNC(=O)c1ccc(Br)cc1)Cc1ccccc1 -1
CCCc1ccc(C(=O)NCCCN(C)Cc2ccccc2)cc1 -1
CN(CCNC(=O)c1ccc([N+](=O)[O-])cc1)Cc1ccccc1 -2

1: COc1ccc(C(=O)NCCCN(C)Cc2ccccc2)cc1
2: COc1cccc(C(=O)NCCCN(C)Cc2ccccc2)c1
Input pair: 1 , 2 . Output: entry with lower Activity. Bench note: the answer is the label of the chosen record.
2
(2: -2%, 1: -1%)

---

Target: D(2) dopamine receptor (Homo sapiens) (UniProt P14416)
Sequence (P14416 whole entry): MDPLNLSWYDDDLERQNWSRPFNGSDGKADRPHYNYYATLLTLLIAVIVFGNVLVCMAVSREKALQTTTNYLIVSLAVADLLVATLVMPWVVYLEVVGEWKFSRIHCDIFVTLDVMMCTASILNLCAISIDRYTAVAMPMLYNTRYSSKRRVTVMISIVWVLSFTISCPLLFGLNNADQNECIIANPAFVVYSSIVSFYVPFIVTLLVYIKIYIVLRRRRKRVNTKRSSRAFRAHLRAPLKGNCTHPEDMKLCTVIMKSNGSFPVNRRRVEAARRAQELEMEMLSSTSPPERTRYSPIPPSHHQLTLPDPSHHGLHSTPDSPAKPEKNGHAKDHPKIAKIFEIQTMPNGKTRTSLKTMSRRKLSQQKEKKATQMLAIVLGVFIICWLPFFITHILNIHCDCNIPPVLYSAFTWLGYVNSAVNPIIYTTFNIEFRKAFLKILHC
Test: Agonist activity at recombinant human dopamine D2L receptor at 10 uM by GTPgamma[35S] binding-based assay relative to agonist
recorded-metric: Activity (%)

Here is how some compounds turned out for Activity.
COc1cccc(C(=O)NCCCN(C)Cc2ccccc2)c1 16
CN(CCNC(=O)c1ccc(C#N)cc1)Cc1ccccc1 -23
CN(CCNC(=O)c1ccc(Cl)cc1)Cc1ccccc1 -2
CN(CCCNC(=O)c1ccc([N+](=O)[O-])cc1)Cc1ccccc1 20
CN(CCCNC(=O)c1cccc(Br)c1)Cc1ccccc1 -2
CN(CCNC(=O)c1ccc([N+](=O)[O-])cc1)Cc1ccccc1 -15
CN(CCCNC(=O)c1ccc(C(F)(F)F)cc1)Cc1ccccc1 25
CN(CCCNC(=O)c1ccc(Cl)cc1)Cc1ccccc1 -3
CCCc1ccc(C(=O)NCCCN(C)Cc2ccccc2)cc1 4
CN(CCCNC(=O)c1ccc(Br)cc1)Cc1ccccc1 -1

P: CN(CCCNC(=O)c1ccc(Cl)cc1)CCc1ccccc1
Q: COc1ccc(C(=O)NCCCN(C)Cc2ccccc2)cc1
Among P and Q , which shows a numerically higher Activity result? Bench note: the answer is the label of the chosen record.
P
(P: 25%, Q: -14%)

---

Biological target: 5-hydroxytryptamine receptor 1A (Homo sapiens)
Experiment: Antagonist activity at recombinant human 5-HT1A assessed as inhibition of agonist-induced cAMP levels at 10 uM by HTRF assay
Assay type: functional
recorded-metric: inhibition (%)

Here is how some compounds turned out for inhibition.
CN(CCNC(=O)c1ccc(Cl)cc1)Cc1ccccc1 3
COc1ccc(C(=O)NCCCN(C)Cc2ccccc2)cc1 5

I: COc1cccc(C(=O)NCCCN(C)Cc2ccccc2)c1
II: CCCc1ccc(C(=O)NCCCN(C)Cc2ccccc2)cc1
Input pair: I , II . Output: entry with lower inhibition. Bench note: the answer is the label of the chosen record.
II

P: CN(CCNC(=O)c1ccc([N+](=O)[O-])cc1)Cc1ccccc1
Q: CN(CCCNC(=O)c1ccc(Cl)cc1)Cc1ccccc1
Among P and Q , which shows a numerically higher inhibition result? Bench note: the answer is the label of the chosen record.
P

---

Target: Muscarinic acetylcholine receptor M4 (Homo sapiens) (UniProt P08173)
Sequence (whole entry): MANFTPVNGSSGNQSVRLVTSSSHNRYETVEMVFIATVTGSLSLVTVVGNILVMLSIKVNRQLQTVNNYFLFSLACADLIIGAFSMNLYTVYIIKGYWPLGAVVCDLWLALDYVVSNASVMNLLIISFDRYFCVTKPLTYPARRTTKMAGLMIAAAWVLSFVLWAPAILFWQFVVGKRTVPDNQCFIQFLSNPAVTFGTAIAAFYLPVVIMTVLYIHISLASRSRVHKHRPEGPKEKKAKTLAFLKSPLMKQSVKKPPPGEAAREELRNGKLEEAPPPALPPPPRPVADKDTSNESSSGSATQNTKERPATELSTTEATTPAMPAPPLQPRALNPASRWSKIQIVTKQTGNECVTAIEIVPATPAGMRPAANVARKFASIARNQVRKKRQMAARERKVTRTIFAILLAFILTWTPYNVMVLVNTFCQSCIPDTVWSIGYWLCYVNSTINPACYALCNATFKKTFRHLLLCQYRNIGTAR
Test: Agonist activity at recombinant human muscarinic M4 receptor at 10 uM by GTPgamma[35S] binding-based assay relative to agonist
Type: functional
recorded-metric: Activity (%)

CN(CCNC(=O)c1ccc(Cl)cc1)Cc1ccccc1 -4

A: CN(CCNC(=O)c1ccc(C#N)cc1)Cc1ccccc1
B: CN(CCCNC(=O)c1ccc(Cl)cc1)Cc1ccccc1
Input pair: A , B . Output: entry with lower Activity. Bench note: the answer is the label of the chosen record.
B
(B: -8%, A: -1%)

P: CN(CCNC(=O)c1ccc([N+](=O)[O-])cc1)Cc1ccccc1
Q: CN(CCCNC(=O)c1cccc(Br)c1)Cc1ccccc1
Input pair: P , Q . Output: entry with lower Activity. Bench note: the answer is the label of the chosen record.
Q
(Q: -12%, P: 0%)

---

Molecular target: 5-hydroxytryptamine receptor 4 (Homo sapiens)
Experiment: Antagonist activity at recombinant human 5-HT4E assessed as inhibition of agonist-induced cAMP levels at 10 uM by HTRF assay
Type: functional
recorded-metric: inhibition (%)

Here is how some compounds turned out for inhibition.
CN(CCCNC(=O)c1ccc(Cl)cc1)Cc1ccccc1 -4
CN(CCNC(=O)c1ccc(C#N)cc1)Cc1ccccc1 -2

I: CN(CCNC(=O)c1ccc(Cl)cc1)Cc1ccccc1
II: CN(CCCNC(=O)c1cccc(Br)c1)Cc1ccccc1
III: CN(CCCNC(=O)c1ccc(Cl)cc1)CCc1ccccc1
IV: CN(CCCNC(=O)c1ccc([N+](=O)[O-])cc1)Cc1ccccc1
Which order do these items take when sorted by rising inhibition? List them. When ranking, write the labels in the order the request describes.
IV, I, II, III
(IV: -6%, I: -3%, II: -2%, III: 4%)

---

Molecular target: Adenosine receptor A1 (Homo sapiens)
Sequence (whole entry): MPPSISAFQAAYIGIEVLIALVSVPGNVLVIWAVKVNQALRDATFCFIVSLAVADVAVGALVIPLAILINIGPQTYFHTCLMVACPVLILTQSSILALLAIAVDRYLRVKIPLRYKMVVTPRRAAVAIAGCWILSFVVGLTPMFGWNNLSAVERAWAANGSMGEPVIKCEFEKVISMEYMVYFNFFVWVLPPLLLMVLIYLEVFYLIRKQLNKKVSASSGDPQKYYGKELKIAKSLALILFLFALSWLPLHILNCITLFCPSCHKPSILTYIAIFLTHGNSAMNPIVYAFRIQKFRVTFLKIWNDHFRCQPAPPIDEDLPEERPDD
Test: Antagonist activity at recombinant human adenosine A1 receptor assessed as inhibition of agonist-induced cAMP induction at 10 uM by HTRF assay
Format: functional
recorded-metric: inhibition (%)

COc1cccc(C(=O)NCCCN(C)Cc2ccccc2)c1 -2
CN(CCCNC(=O)c1ccc(Cl)cc1)CCc1ccccc1 -10

a: CN(CCNC(=O)c1ccc(C#N)cc1)Cc1ccccc1
b: CCCc1ccc(C(=O)NCCCN(C)Cc2ccccc2)cc1
Input pair: a , b . Output: entry with lower inhibition. Bench note: the answer is the label of the chosen record.
b
(b: -9%, a: 2%)
